Sourced from patent US10864201B2

// values below are reported IC50
# measured_target: FLAG-tagged Vanin-1 (AA 22-493, T26I) (Homo sapiens (Human), UniProt O95497, T26I)
# Sequence (O95497 22-493 T26I): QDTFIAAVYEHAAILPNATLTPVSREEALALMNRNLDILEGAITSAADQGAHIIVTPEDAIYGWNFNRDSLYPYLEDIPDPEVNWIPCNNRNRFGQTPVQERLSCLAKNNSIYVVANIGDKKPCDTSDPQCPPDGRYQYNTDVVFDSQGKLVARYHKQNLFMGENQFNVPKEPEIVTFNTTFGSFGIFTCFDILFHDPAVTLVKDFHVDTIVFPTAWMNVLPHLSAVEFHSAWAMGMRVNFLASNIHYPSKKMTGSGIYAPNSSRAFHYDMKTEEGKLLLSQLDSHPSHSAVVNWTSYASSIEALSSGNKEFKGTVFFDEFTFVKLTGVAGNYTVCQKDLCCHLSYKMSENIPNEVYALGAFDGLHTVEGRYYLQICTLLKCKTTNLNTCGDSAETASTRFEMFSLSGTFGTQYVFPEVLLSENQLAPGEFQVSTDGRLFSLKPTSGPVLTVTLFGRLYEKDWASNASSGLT
# measurement_protocol: Vanin-1 enzymatic assay
# Assay type: biochemical
# measurement_context: formation of pantothenic acid from D-pantethine (3 μM), RapidFire MS; geometric mean in case of multiple measurements; read-out: VNN 1 IC50
Reply with just the number (in nM).

Known IC50 results, listed for orientation:
INSERT INTO assay_data (molecule, experimental_result) VALUES
  ('CC1(C)Cc2cc(C(=O)N3CC[C@H](N4CCCC4=O)C3)cnc2N1', 1.5),
  ('CCC1(C)CCc2cc(C(=O)N3CC[C@H](N(C)C(C)=O)C3)cnc2N1 (stereo partly shown)', 0.5),
  ('CN(C(=O)C1CCC1)[C@H]1CCN(C(=O)c2cnc3c(c2)CC[C@@](C)(c2cncnc2)N3)C1', 23.5);

Query molecule follows.
Q) Given the molecule `CC1(C)Cc2cc(C(=O)N3CC4(CCOCC4)C3)cnc2N1` , write its reported IC50.
A) 10.4

###

# measured_target: FLAG-tagged Vanin-1 (AA 22-493, T26I) (Homo sapiens (Human), UniProt O95497, T26I)
# measurement_protocol: Vanin-1 enzymatic assay
# measurement_context: formation of pantothenic acid from D-pantethine (3 μM), RapidFire MS; geometric mean in case of multiple measurements; read-out: VNN 1 IC50
Class membership depends on IC50 alone; the intervals are b0 = under 0.2 nM, b1 = from 0.2 nM up to 0.9 nM, b2 = 0.9 nM and over

Some solved entries appear below for comparison.
INSERT INTO results (mol, class_label) VALUES
  ('CN(C(=O)C1CC1)[C@H]1CCN(C(=O)c2cnc3c(c2)CCC(C)(C)N3)C1', 'b1'),
  ('CC(=O)N(C)[C@H]1CCN(C(=O)c2cnc3c(c2)CCCC(C)(C)N3)C1', 'b2'),
  ('CN(C(=O)C1CC1)[C@H]1CCN(C(=O)c2cnc3c(c2)CC(C)(C)N3)C1', 'b2');

Q) Pick a category. Item: `C[C@]1(c2ccc(F)cc2)Cc2cc(C(=O)N3CC[C@H](N4CCCC4=O)C3)cnc2N1`
A) b0

Q) Bin this entry: `CC(=O)N(C)[C@H]1CCN(C(=O)c2cnc3c(c2)C[C@](C)(c2cccc(Cl)c2)N3)C1`
A) b0

Q) // bin(item) where item = `C[C@]1(c2cccc(F)c2)Cc2cc(C(=O)N3CC[C@H](N4CCCC4=O)C3)cnc2N1`
A) b0

###

# measured_target: FLAG-tagged Vanin-1 (AA 22-493, T26I) (Homo sapiens (Human), UniProt O95497, T26I)
# measurement_protocol: Vanin-1 enzymatic assay
# measurement_context: formation of pantothenic acid from D-pantethine (3 μM), RapidFire MS; geometric mean in case of multiple measurements; read-out: VNN 1 IC50
pIC50: −log10 of the molar value.
Outcome label depends on pIC50 relative to 9: at/above gives Criterion met, below gives Criterion not met.

Field: example entries. Status: answers known.
INSERT INTO results (compound, measured_target, class_label) VALUES
  ('CC(=O)N(C)[C@H]1CCN(C(=O)c2cnc3c(c2)C[C@@](C)(c2ccc(F)cc2)N3)C1 [Example 5.4]', 'FLAG-tagged Vanin-1 (AA 22-493, T26I) (Homo sapiens (Human), UniProt O95497, T26I)', 'Criterion not met'),
  ('CC(=O)N(C)[C@H]1CCN(C(=O)c2cnc3c(c2)C[C@@](C)(c2ccccc2)N3)C1 [Example 9.4]', 'FLAG-tagged Vanin-1 (AA 22-493, T26I) (Homo sapiens (Human), UniProt O95497, T26I)', 'Criterion not met'),
  ('CC(=O)N(C)[C@H]1CCN(C(=O)c2cnc3c(c2)CCCCN3)C1 [Example 12.3]', 'FLAG-tagged Vanin-1 (AA 22-493, T26I) (Homo sapiens (Human), UniProt O95497, T26I)', 'Criterion met'),
  ('C[C@]1(c2ccc(Cl)cc2)Cc2cc(C(=O)N3CC[C@H](N4CCOC4=O)C3)cnc2N1 [Example 8.2]', 'FLAG-tagged Vanin-1 (AA 22-493, T26I) (Homo sapiens (Human), UniProt O95497, T26I)', 'Criterion met'),
  ('CC(=O)N(C)[C@H]1CCN(C(=O)c2cnc3c(c2)CC(C)(c2ccc(Cl)cc2)N3)C1 (mixture of isomers) [Example 8.1]', 'FLAG-tagged Vanin-1 (AA 22-493, T26I) (Homo sapiens (Human), UniProt O95497, T26I)', 'Criterion met'),
  ('CN(C(=O)C1(C)CCC1)[C@H]1CCN(C(=O)c2cnc3c(c2)CC(C)(C)N3)C1 [Example 2.3]', 'FLAG-tagged Vanin-1 (AA 22-493, T26I) (Homo sapiens (Human), UniProt O95497, T26I)', 'Criterion not met'),
  ('C[C@]1(c2cccc(F)c2)Cc2cc(C(=O)N3CC[C@H](N4CCOC4=O)C3)cnc2N1 [Example 4.1]', 'FLAG-tagged Vanin-1 (AA 22-493, T26I) (Homo sapiens (Human), UniProt O95497, T26I)', 'Criterion met'),
  ('CN(c1ncccn1)[C@H]1CCN(C(=O)c2cnc3c(c2)CC(C)(C)N3)C1 [Example 3.1]', 'FLAG-tagged Vanin-1 (AA 22-493, T26I) (Homo sapiens (Human), UniProt O95497, T26I)', 'Criterion not met');

Q) Decide: is the reported value of pIC50 for CC(=O)N(C)[C@H]1CCN(C(=O)c2cnc3c(c2)CCC(c2ccccc2)N3)C1 (stereo partly shown) [Example 12.1] equal to or greater than 9?
A) Criterion not met

Q) Quick check, pIC50 >= 9? CN(C(=O)C1CC1)[C@H]1CCN(C(=O)c2cnc3c(c2)CC[C@@](C)(c2cncnc2)N3)C1 [Example 13.4]
A) Criterion not met

Q) Is pIC50 for CC1(C)Cc2cc(C(=O)N3CCC4(CCOCC4)C3)cnc2N1 [Example 1.4] at or above 9?
A) Criterion not met
